// reported RP-LC retention time per item
test: gradient 5% acetonitrile 3 min, to 50% in 2 min, to 85% in 15 min, held 3 min, 100 µL/min; details: column: Zorbax Extend-C18 2.1 x 50 mm; eluents: water / acetonitrile, 0.1% formic acid
Your answer is read as s, so omit the unit and give the number.

COMPOUND: O=C(CN1CCN(Cc2ccc(F)cc2)C(=O)C1=O)N1CCN(c2cccc(Cl)c2)CC1
UOM: s
RP-LC retention time: 829

Would you kindly share the measured RP-LC retention time for O=C(c1ccc(Cl)cc1)N1CCc2nc(-c3ccc(Cl)cc3)ncc2C1 ?
1140

Would you kindly share the measured RP-LC retention time for Cc1cc(N2CCC(C)CC2)n2nc(-c3ccc(Cl)cc3)nc2n1 ?
1170

----------
assay: gradient 5% acetonitrile 3 min, to 50% in 2 min, to 85% in 15 min, held 3 min, 100 µL/min; conditions: column: Zorbax Extend-C18 2.1 x 50 mm; eluents: water / acetonitrile, 0.1% formic acid
METRIC_NAME: RP-LC retention time (s)
Your answer is read as s, so omit the unit and give the number.

Would you kindly share the measured RP-LC retention time for CN1CCC(OC2CCN(C(=O)c3ccc(F)cc3Cl)CC2)CC1 ?
583

----------
experiment: gradient 5% acetonitrile 3 min, to 50% in 2 min, to 85% in 15 min, held 3 min, 100 µL/min; details: column: Zorbax Extend-C18 2.1 x 50 mm; eluents: water / acetonitrile, 0.1% formic acid
Each record's class is read off its RP-LC retention time using these ranges: LOW: < 700 s; MID: ≥ 700 s and < 1000 s; HIGH: ≥ 1000 s

Example cases with answers are listed next.
COMPOUND: O=C(c1ccc2c(c1)OCO2)N1C[C@@H](CO)[C@H](c2ccncc2)C1
LABEL_VALUE: LOW
--
COMPOUND: CC(C)(C)c1noc(-c2ccc(-n3cnc(C(=O)NCc4ccccc4)c3)nc2)n1
LABEL_VALUE: HIGH
--
COMPOUND: CCc1noc(C2CCCCN2Cc2nc(Cc3ccccc3)no2)n1 (stereo not given)
LABEL_VALUE: MID
--
COMPOUND: COc1ccccc1-c1nc(Cc2noc(-c3cccc(F)c3)n2)c(C)o1
LABEL_VALUE: HIGH
--
COMPOUND: CSc1cccc(NC(=O)NC2CCN(c3ccc(F)c(C)c3)C2=O)c1 (stereo not given)
LABEL_VALUE: MID
--
COMPOUND: Cc1cccc2nc(-c3cccc(Br)c3)c(Nc3ccc4c(c3)OCCO4)n12
LABEL_VALUE: MID
--
COMPOUND: Cc1ccc(NC(=O)N2CCN(C3=CC4=NC(C)CN4C=N3)CC2)c(C)c1 (stereo not given)
LABEL_VALUE: LOW
--
COMPOUND: O=C(Cc1nc(-c2ccccn2)n[nH]1)Nc1cccc(F)c1
LABEL_VALUE: LOW
--
COMPOUND: O=c1ccn(-c2ccc(Cl)cc2)nc1-c1nc(-c2ccc3c(c2)OCO3)no1
LABEL_VALUE: MID
--
COMPOUND: O=C(C1COc2ccccc2O1)N1CCN(c2cc(-c3ccc(Cl)cc3)[nH]n2)CC1 (stereo not given)
LABEL_VALUE: MID

Kindly state the category for this compound: CCc1cc(C(=O)Nc2cc(C)ccc2F)nc2ccnn12
HIGH

Kindly state the category for this compound: COc1ccc(N2CCN(C(=O)C3CCCN(c4cnc5nccnc5c4)C3)CC2)cc1 (stereo not given)
MID

Kindly state the category for this compound: COc1ccc2c(c1)C1(CCN(S(=O)(=O)c3cccc(Cl)c3)C1)C(=O)N2 (stereo not given)
MID

Kindly state the category for this compound: COc1ccc(S(=O)(=O)NCC2CCN(Cc3cc(C)oc3C)CC2)cc1Cl
LOW

Kindly state the category for this compound: CS(=O)(=O)N1CCC(OC2CCN(C(=O)NCc3cccc(F)c3)CC2)CC1
MID

----------
// reported RP-LC retention time per item
assay: gradient 5% acetonitrile 3 min, to 50% in 2 min, to 85% in 15 min, held 3 min, 100 µL/min; details: column: Zorbax Extend-C18 2.1 x 50 mm; eluents: water / acetonitrile, 0.1% formic acid
Your answer is read as s, so omit the unit and give the number.

# annotated cases, reported RP-LC retention time shown
COMPOUND: O=C(CCNc1c(-c2cccc(F)c2)nc2cnccn12)NCc1ccc(F)cc1
RESULT_NUMBER: 755
--
COMPOUND: Cc1cc(C)n(CCNC(=O)NC(c2ccccc2)c2ccccc2)n1
RESULT_NUMBER: 716
--
COMPOUND: O=C(CCC1CCN(S(=O)(=O)c2ccccc2)CC1)NCC1CCCCC1
RESULT_NUMBER: 971
--
COMPOUND: O=C(NC1CCN(Cc2ccccc2)CC1)c1ccccc1Cl
RESULT_NUMBER: 549
--
COMPOUND: COC(=O)c1ncn2c1C(=O)N(c1ccc(C)cc1)C(C)(C(=O)NCc1ccc(C)cc1)C2 (centres undefined)
RESULT_NUMBER: 747

Would you kindly look at the next entry?
Would you kindly share the measured RP-LC retention time for O=C(c1n[nH]c2ccccc12)N1CCN(c2ccc(C(F)(F)F)cn2)CC1 ?
832

----------
assay: gradient 5% acetonitrile 3 min, to 50% in 2 min, to 85% in 15 min, held 3 min, 100 µL/min; settings: column: Zorbax Extend-C18 2.1 x 50 mm; eluents: water / acetonitrile, 0.1% formic acid
// reported RP-LC retention time per item
Your answer is read as s, so omit the unit and give the number.

# annotated cases, reported RP-LC retention time shown
COMPOUND: O=C(NC1CCN(c2cc(-c3ccccc3)[nH]n2)C1)c1ccsc1 (stereo not given)
RESULT_NUMBER: 660

COMPOUND: O=C1CC(c2noc(-c3cc(F)cc(F)c3)n2)CN1c1ccc(Cl)cc1 (stereo not given)
RESULT_NUMBER: 1100

COMPOUND: COc1ccc2c(c1)C1(CCN(C(=O)Cc3ccc(Cl)cc3)C1)C(=O)N2C (stereo not given)
RESULT_NUMBER: 873

COMPOUND: CCc1cccc(NC(=O)C2CCCN(c3nnc4ccccn34)C2)c1 (stereo not given)
RESULT_NUMBER: 734

Would you kindly share the measured RP-LC retention time for Cc1cccc(-c2nnc(C)c(N3CCC(C)CC3)n2)c1 ?
771

Would you kindly share the measured RP-LC retention time for O=C(NCc1ccco1)C1CCN(S(=O)(=O)c2cc(C(=O)N3CCCC3)cs2)CC1 ?
715

Would you kindly share the measured RP-LC retention time for Cc1nc2cc(-c3noc(-c4ccco4)n3)ccc2n(C2CCCC2)c1=O ?
927

Would you kindly share the measured RP-LC retention time for C=CCNc1nc(-c2cccc([N+](=O)[O-])c2)cs1 ?
949

Would you kindly share the measured RP-LC retention time for COC(=O)c1c(C)[nH]c(C(=O)N2CCCC(C(=O)NC3CC3)C2)c1C (stereo not given) ?
627

Would you kindly share the measured RP-LC retention time for Cc1cc(C)cc(NC(=O)Cn2cnc3nc(N4CCC(C(=O)NC5CC5)CC4)sc3c2=O)c1 ?
713

Would you kindly share the measured RP-LC retention time for Cn1c(=O)c(N2CCCC(C(=O)NCCc3c[nH]c4ccc(Cl)cc34)C2)nc2ccccc21 (stereo not given) ?
960

Would you kindly share the measured RP-LC retention time for CCN1CCn2cc(S(=O)(=O)Nc3ccccc3OC)cc2C1=O ?
690

Would you kindly share the measured RP-LC retention time for Cc1nc2c([nH]1)CCN(C(=O)c1ccc(NC(=O)c3ccccc3-c3ccccc3)cc1)c1ccccc1-2 ?
795

----------
assay: gradient 5% acetonitrile 3 min, to 50% in 2 min, to 85% in 15 min, held 3 min, 100 µL/min; details: column: Zorbax Extend-C18 2.1 x 50 mm; eluents: water / acetonitrile, 0.1% formic acid
Decision: RP-LC retention time beneath 700 s gives YES; RP-LC retention time meeting or exceeding 700 s gives NO.

COMPOUND: O=c1ccc(N2CCCC(NS(=O)(=O)Cc3ccccc3)C2)n[nH]1 (stereo not given)
LABEL_VALUE: YES

COMPOUND: COCCNc1c(-c2ccc(F)cc2)nc2sc(C(=O)NCc3ccccn3)c(C)n12
LABEL_VALUE: YES

COMPOUND: CCCCC(=O)O[C@]1(C(=O)CO)CC[C@H]2[C@@H]3CCC4=CC(=O)CC[C@]4(C)[C@H]3[C@@H](O)C[C@@]21C
LABEL_VALUE: NO

COMPOUND: Cn1c(N2CCC(C(=O)N3CCN(Cc4ccc5c(c4)OCO5)CC3)CC2)cc(=O)n(C)c1=O
LABEL_VALUE: YES

COMPOUND: Cc1oc(C2CCN(S(=O)(=O)Cc3ccccc3)CC2)nc1C(=O)N1CCOCC1
LABEL_VALUE: NO

Does the reported RP-LC retention time of the following compound sit strictly below 700 s? CNC(=O)C1CN(C(=O)c2ccc(OC)cc2)CC12CCCC2 (stereo not given)
YES

Does the reported RP-LC retention time of the following compound sit strictly below 700 s? CN(CC1(C)CCOCC1)C(=O)COc1ccc(Cl)cc1
NO

Does the reported RP-LC retention time of the following compound sit strictly below 700 s? CCc1cccc(C)c1NC(=O)Cn1nc2c3cccc(C)c3ncn2c1=O
YES

Does the reported RP-LC retention time of the following compound sit strictly below 700 s? Cc1noc(C)c1-c1ccc(S(=O)(=O)NCCc2ccc(S(N)(=O)=O)cc2)cc1
NO

Does the reported RP-LC retention time of the following compound sit strictly below 700 s? Cc1ccccc1-c1noc(C2CCCN2C(=O)NC2CCCCC2)n1 (stereo not given)
NO

Does the reported RP-LC retention time of the following compound sit strictly below 700 s? c1ccc(-n2ncc3cccnc32)cc1
YES

Does the reported RP-LC retention time of the following compound sit strictly below 700 s? CCOc1ccc(CNC(=O)c2c(C)sc3ccn(CC(C)C)c(=O)c23)cc1
NO

Does the reported RP-LC retention time of the following compound sit strictly below 700 s? COc1cccc(S(=O)(=O)Nc2ccc3c(c2)CCC(=O)N3CC(C)C)c1
NO

Does the reported RP-LC retention time of the following compound sit strictly below 700 s? COc1ccccc1OCCN1C(=O)C(NC(C)=O)c2ccccc21 (stereo not given)
YES

Does the reported RP-LC retention time of the following compound sit strictly below 700 s? CN1CCCCCCN(C(=O)c2cccs2)[C@H]2CCC[C@H]2C1=O
NO

Does the reported RP-LC retention time of the following compound sit strictly below 700 s? CCS(=O)(=O)N1CC(=O)N(c2cc(C)cc(C)c2)C(C)(C(=O)NCc2ccc(F)cc2)C1 (stereo not given)
NO

Does the reported RP-LC retention time of the following compound sit strictly below 700 s? CC(C)c1ccc(-c2ccnc3c(C(=O)NCc4ccco4)cnn23)cc1
NO

Does the reported RP-LC retention time of the following compound sit strictly below 700 s? Cc1cc(N2CCN([C@@H]3CN[C@H](C(=O)N4CCSC4)C3)CC2)n(-c2ccccc2)n1
YES
